Tested system: T1, PDZD7_3, Q9H5P4
T1 sequence (Q9H5P4 857-944, limits assumed, looked up): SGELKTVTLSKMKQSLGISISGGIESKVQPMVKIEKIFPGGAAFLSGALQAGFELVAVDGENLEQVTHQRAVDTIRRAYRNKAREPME
Assay: holdup assay
Parameters: key: below the threshold = too weak to quantify, mostly under pKd 3.1 to 4
Condition set: plain residues with an end cap or a label only (N-terminal biotin on a linker: ttds)

Binder	pKd
SGSRPSATVV [HPV73-E6, Q82005]	4.7
PRVKPQRSKV [PPP1R13L, Q8WUF5]	3.67
KKYVDAETSL [SLC4A7, Q9Y6M7]	3.77
QRQARSETLV [HPV59-E6, Q81964]	4.72
